Assay: Caspase-3/7 induction in CHO-K1 cells by small molecules, qHTS cell viability counter screen (AID 1346979); further: nearly all actives have a fitted effect of over 35% in size
Conditions: CellTiter-Fluor fluorescence, 17 h; series mostly up to 92.4 µM
Inconclusive results are not listed. Activity calls are given as the source filed them. The call rests on the fitted dose curve; in most records, active means well fitted cell-killing curve with a large enough effect in the repeat runs; inconclusive means weak or mixed curves, or effect the other way; inactive means no such curve, though single readings can be large or run the other way.
MEASUREMENT TYPE: activity change, negative = cytotoxicity

Here are 5 molecules together with their reported answers.
>>> experimental_value("N=C(N)N")
"inactive"
>>> experimental_value("CCCCN=C(N)N=C(N)N")
"inactive"
>>> experimental_value("CSC(=O)c1cccc2nnsc12")
"inactive"
>>> experimental_value("CC(C)(C)OC=O")
"inactive"
>>> experimental_value("O=C(O)Cc1ccccc1Oc1ccc(Cl)cc1Cl")
"inactive"

The recorded activity change, negative = cytotoxicity for entry CCO[Si](CC(C)C)(OCC)OCC equals inactive

The recorded activity change, negative = cytotoxicity for entry COC(=O)c1cc(Cl)c(NC(C)=O)cc1OC equals inactive

The recorded activity change, negative = cytotoxicity for entry CC[C@@]1(c2ccccc2)NC(=O)N(C)C1=O equals inactive

The recorded activity change, negative = cytotoxicity for entry CC(=O)OC/C=C(/C)CCC=C(C)C equals inactive

The recorded activity change, negative = cytotoxicity for entry CC(O)C(CO)C(C)O (stereo not drawn) equals inactive

All values here come from PubChem BioAssay (Tox21).
